Target: porcine pancreatic lipase (Sus scrofa, UniProt P00591)
Sequence (P00591 1-450): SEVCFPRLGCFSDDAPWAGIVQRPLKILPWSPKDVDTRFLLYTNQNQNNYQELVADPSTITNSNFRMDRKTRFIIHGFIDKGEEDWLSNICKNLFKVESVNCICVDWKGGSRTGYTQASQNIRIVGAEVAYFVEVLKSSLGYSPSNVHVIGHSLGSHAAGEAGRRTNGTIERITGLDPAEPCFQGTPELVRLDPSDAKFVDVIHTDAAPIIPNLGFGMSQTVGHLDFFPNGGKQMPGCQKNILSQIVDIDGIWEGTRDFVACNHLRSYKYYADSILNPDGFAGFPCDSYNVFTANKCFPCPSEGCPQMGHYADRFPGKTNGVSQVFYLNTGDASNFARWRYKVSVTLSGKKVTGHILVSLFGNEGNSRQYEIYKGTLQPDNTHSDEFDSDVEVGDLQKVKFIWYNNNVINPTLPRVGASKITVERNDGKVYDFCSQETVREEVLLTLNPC
pIC50: −log10 of the molar value.
property: pIC50

INSERT INTO assay_data (molecule, comparative_sign, result_number) VALUES
  ('O=C(O[C@@H]1Cc2c(O)cc(O)c([C@@H]3c4c(O)cc(O)cc4O[C@H](c4ccc(O)c(O)c4)[C@H]3O)c2O[C@@H]1c1cc(O)c(O)c(O)c1)c1cc(O)c(O)c(O)c1', '=', 6.76),
  ('Oc1cc(O)c2c(c1)O[C@H](c1ccc(O)c(O)c1)[C@@H](O)[C@@H]2c1c(O)cc(O)c2c1O[C@H](c1ccc(O)c(O)c1)[C@@H](O)C2 [procyanidin B-3 (10), procyanidin B-3]', '=', 5.53),
  ('O=C(O[C@@H]1[C@@H](c2c(O)cc(O)c3c2O[C@H](c2cc(O)c(O)c(O)c2)[C@H](OC(=O)c2cc(O)c(O)c(O)c2)C3)c2c(O)cc(O)cc2O[C@@H]1c1ccc(O)c(O)c1)c1cc(O)c(O)c(O)c1', '=', 6.07),
  ('O=C(O[C@@H]1Cc2c(O)cc(O)cc2O[C@H]1c1ccc(O)c(O)c1)c1cc(O)c(O)c(O)c1 [(−)-catechin 3-O-gallate (6), (−)-catechin 3-O-gallate, reference compound]', '=', 6.07),
  ('Oc1cc(O)c2c(c1)O[C@H](c1cc(O)c(O)c(O)c1)[C@@H](O)C2 [(+)-gallocatechin (7), (+)-gallocatechin, reference compound]', '<', 3.79),
  ('O=C(O[C@@H]1Cc2c(O)cc3c(c2O[C@@H]1c1cc(O)c(O)c(O)c1)[C@H]1c2c(O)cc(O)cc2O[C@@](c2cc(O)c(O)c(O)c2)(O3)[C@@H]1O)c1cc(O)c(O)c(O)c1 [prodelphinidin A-2 3′-O-gallate (11), prodelphinidin A-2 3′-O-gallate]', '=', 6.77),
  ('O=C(O[C@@H]1[C@@H](c2c(O)cc(O)c3c2O[C@H](c2ccc(O)c(O)c2)[C@H](OC(=O)c2cc(O)c(O)c(O)c2)C3)c2c(O)cc(O)cc2O[C@@H]1c1cc(O)c(O)c(O)c1)c1cc(O)c(O)c(O)c1', '=', 6.21),
  ('Oc1cc(O)c2c(c1)O[C@H](c1cc(O)c(O)c(O)c1)[C@H](O)C2 [(−)-epigallocatechin (3), (−)-epigallocatechin, reference compound]', '<', 4.69),
  ('Oc1cc(O)c2c(c1)O[C@H](c1ccc(O)c(O)c1)[C@H](O)C2 [(−)-epicatechin (1), (−)-epicatechin, reference compound]', '<', 4.67),
  ('Oc1cc(O)c2c(c1)OC(c1ccc(O)c(O)c1)C(O)C2 (single isomer, unassigned; (+)) [(+)-catechin (5), (+)-catechin, reference compound]', '<', 3.16);

----------
The molecules below have reported IC50 for porcine pancreatic lipase (Sus scrofa).
property: IC50 (nM)

INSERT INTO results (molecule, result_number) VALUES
  ('Oc1cc(O)c2c(c1)O[C@H](c1cc(O)c(O)c(O)c1)[C@@H](O)[C@@H]2c1c(O)cc(O)c2c1O[C@H](c1cc(O)c(O)c(O)c1)[C@H](O)C2', 6230),
  ('O=C(OC1Cc2c(O)cc(O)c(C3c4c(O)cc(O)cc4OC(c4cc(O)c(O)c(O)c4)C3O)c2OC1c1cc(O)c(O)c(O)c1)c1cc(O)c(O)c(O)c1 (stereo not shown) [prodelphinidin B-2 3′-O-gallate (13), prodelphinidin B-2 3′-O-gallate]', 1970),
  ('O=C(O[C@@H]1Cc2c(O)cc(O)c([C@H]3c4c(O)cc(O)cc4O[C@H](c4cc(O)c(O)c(O)c4)[C@@H]3O)c2O[C@@H]1c1ccc(O)c(O)c1)c1cc(O)c(O)c(O)c1', 913),
  ('O=C(O[C@@H]1[C@@H](c2c(O)cc(O)c3c2O[C@H](c2cc(O)c(O)c(O)c2)[C@H](OC(=O)c2cc(O)c(O)c(O)c2)C3)c2c(O)cc(O)cc2O[C@@H]1c1cc(O)c(O)c(O)c1)c1cc(O)c(O)c(O)c1 [prodelphinidin B-2 3,3′-di-O-gallate]', 107);
